Origin of measurements: PubChem BioAssay (NCI)

Tested on: COLO 205 colon
assay-comment: NCI tumour cell line growth inhibition, 48 h; in the data active = GI50 below about 0.43 µM; inactive = the rest
Labels: active, inactive

{"columns": ["molecule", "assigned-category"],
 "data": [
  ["c1cc[n+](Cc2c3ccccc3cc3c2ccc2ccccc23)cc1", "inactive"],
  ["O=C(Cc1cc(O)ccc1O)NO", "inactive"],
  ["CC(=O)OC(C(=O)[O][Ge]([CH3])([CH3])[CH3])c1ccccc1 (stereo unspecified)", "inactive"],
  ["CCCCCCCCCCCCC(O)C1CCC(C(O)CCCCC(O)CCCCCC2CC(CC(C)=O)C(=O)O2)O1 (stereo unspecified)", "inactive"],
  ["O=C1NC(=Nc2ccc(O)cc2)S/C1=C\\c1cccs1", "inactive"],
  ["Cc1ccc2ncnc(N(C)C3CCCCC3)c2c1", "inactive"],
  ["Cc1[nH]c(C(=O)Nc2cccc(OC3CCNCC3)c2)c(Cl)c1Cl", "inactive"],
  ["COc1ccccc1CNCCCN1C(=O)c2ccc3c4c(ccc(c24)C1=O)C(=O)N(CCCNCCCCNCCCN)C3=O", "active"],
  ["COC(=O)C1C(C(=O)O)C2(c3ccccc3)C(=O)C1(c1ccccc1)C(c1ccc(OC)cc1)=C2c1ccc(OC)cc1 (stereo unspecified)", "inactive"],
  ["COc1ccc2nc3cc([N+](=O)[O-])ccc3c(NCCO)c2c1", "inactive"],
  ["COc1ccc(C2=C(c3ccccc3)C(=O)N3CCCC3C2)cc1 (stereo unspecified)", "active"]
]}

----------
System: SW-620 colon
assay-comment: NCI tumour cell line growth inhibition, 48 h; in the data active means GI50 below about 0.43 µM; inactive means the rest
Possible outcomes: active, inactive

{"columns": ["compound", "assigned-category"],
 "data": [
  ["COc1cc2c(Nc3ccc(-c4ccc(N)cc4)cc3)ncnc2c(OC)c1OC", "inactive"],
  ["Nc1nc(N)c2cc(S(=O)(=O)c3ccc4ccccc4c3)ccc2n1", "inactive"],
  ["CCOC(=O)c1c(C)n([O-])c2cc(F)c(F)cc2[n+]1=O", "inactive"],
  ["CCCCCCCCCCCCC(O)C1CCC(C(O)CCCCC(O)CCCCCC2CC(CC(C)=O)C(=O)O2)O1 (stereo not drawn)", "inactive"],
  ["C[C@@]12CC[C@@H](O)C[C@@H]1CC[C@H]1[C@H]2CC[C@@]2(C)[C@H](c3ccc(=O)oc3)CC[C@@]12O", "active"],
  ["Cc1nc2ccc(-n3ncc(C(=O)c4cc5ccccc5[nH]4)c3N)cc2[nH]1", "inactive"],
  ["Cc1cc(O)ccc1C1(c2ccc(O)cc2C)OC(=O)c2ccccc21", "inactive"],
  ["NC(=O)c1c[nH]c2ncnc(N)c12", "inactive"],
  ["CCOC(=O)C1=C(C)NC2SC(=O)/C(=C\\c3cccc(Cl)c3)N2C1c1ccccc1 (stereo not drawn)", "inactive"],
  ["COc1ccc2c(c1)OCC1c3cc(OC)c4ccccc4c3OC21 (stereo not drawn)", "inactive"],
  ["CS(=O)(=O)N1CCC(Nc2ncc(C(=O)c3c(F)cccc3F)c(N)n2)CC1", "inactive"],
  ["COc1cccc2nc(Nc3cccc(NC(=O)c4ccc(N5CCN(C)CC5)c(C(F)(F)F)c4)c3)ccc12", "inactive"],
  ["COC(=O)CN1Cc2cc(C)cc(c2O)CN(CC(=O)OC)Cc2cc(C)cc(c2O)CN(CC(=O)OC)Cc2cc(C)cc(c2O)CN(CC(=O)OC)Cc2cc(C)cc(c2O)C1", "inactive"],
  ["COc1ccc(-c2nc3sccn3c2-c2ccnc(NCCNS(=O)(=O)c3ccc(C(F)(F)F)cc3)n2)cc1", "inactive"],
  ["Cc1[nH]c(C(=O)Nc2cccc(OC3CCNCC3)c2)c(Cl)c1Cl", "inactive"],
  ["COc1ccc2[nH]c(C(=O)OCc3ccc4c(Br)cc(Br)c(O)c4n3)cc2c1", "active"],
  ["C[n+]1cccc(NC(=O)c2ccc3ccc4ccc(C(=O)Nc5ccc[n+](C)c5)nc4c3n2)c1", "inactive"],
  ["COc1ccc(C2=C(c3ccccc3)C(=O)N3CCCC3C2)cc1 (stereo not drawn)", "inactive"]
]}
